assay: general mammalian cell viability loss – inhibitor set, cherry-pick, set 2, cytotoxicity control for miR-122 modulator project, dose response (AID 720697); details: HEK293T viability, CellTiter-Glo luminescence, 48 h; series mostly up to 26 µM
Measured potencies and affinities stand elsewhere. Results filed as inconclusive are left out. The source made the active and inactive calls.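 The calls were made as follows: active = signal loss with fitted half-maximal concentration at or below twice the top valid tested dose in every test run; inconclusive = runs disagree, flat 30 to 70% signal loss, or poor fit; inactive = all runs flat, opposite direction, or potency beyond limit.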
PROPERTY_LABEL: activity change, negative = cytotoxicity

In [3]: df
Out[3]:
                                 smiles_str                            property_label  measured_result
0  O=C(C1CCCCC1)N1C[C@@H]2[C@H](c3ccccc31)[C@H](CO)N2Cc1ccccc1Cl  activity change, negative = cytotoxicity         inactive
1  CN1C(=O)c2cc(NS(=O)(=O)c3ccc(Cl)cc3)ccc2OC[C@H]2O[C@H](CC(=O)N3CCc4ccccc4C3)CC[C@@H]21  activity change, negative = cytotoxicity         inactive
2  CNC(=O)C[C@H]1CC[C@@H]2[C@H](COc3ccc(NC(=O)NC(C)C)cc3C(=O)N2C)O1  activity change, negative = cytotoxicity         inactive
3  C/C=C/c1ccc2c(c1)O[C@H](CN(C)C(=O)NCCC)[C@H](C)CN([C@@H](C)CO)S2(=O)=O  activity change, negative = cytotoxicity         inactive
